Consider the following compounds and their measured Ki readings.
Biological target: Cloned Human Dopamine D3 Receptors (Homo sapiens)
Construct: expressed in transfected cells; membrane homogenate
Assay: [N-Methyl-3H]Spiroperidol binding to cloned human dopamine D3 receptors
Conditions: Table 2; unit inferred; read-out: d3Ki
# value in nM; strip the unit string

Some entries whose results are on file:
// CC1CCC(NC(=O)C2CC2CN2CCCN(c3cc(C(F)(F)F)nc(C(C)(C)C)n3)CC2)CC1 (stereo not shown) : Ki value = 9.23

The value of Ki measured for the compound CC1CCCC(NC(=O)CCCN2CCCN(c3csc4cc(F)ccc34)CC2)C1 (stereo not shown) turned out to be 39.5

// field: Ki; key: CC1CCC(NC(=O)C2CC2CN2CCN(c3cccc(Cl)c3Cl)CC2)CC1 (stereo not shown) ; value = 0.98

CC[C@H]1CC[C@H](NC(=O)[C@@H]2C[C@H]2CN2CCN(c3ccc(Cl)c(Cl)c3)CC2)CC1 [817090A] yielded Ki of 5.04

Continuing:
# Ki of `C[C@@]1(C(=O)NCc2ccc3ccccc3c2)C[C@H]1CN1CCN(c2csc3cc(C(F)(F)F)ccc23)CC1` = 186

Data point: `C[C@@]1(C(=O)NCc2cccs2)C[C@H]1CN1CCN(c2csc3cc(C(F)(F)F)ccc23)CC1` ; Ki = 49

Lab note: measured Ki of `O=C(CCCCN1CCN(c2csc3cc(F)ccc23)CC1)N(Cc1ccccc1)c1cccc(Oc2ccccc2)c1` was 338

For record `O=C(CCCN1CCCN(c2csc3cc(F)ccc23)CC1)N(CCO)C1CCCCC1` the listed Ki is 25.1

Record CCN(C(=O)CCCN1CCN(c2csc3cc(F)ccc23)CC1Cc1ccccc1)C1CCCCC1 (stereo not shown) , field Ki: 346

---

Target: Cloned Human Dopamine D3 Receptors (Homo sapiens, UniProt P35462)
Construct: expressed in transfected cells; membrane homogenate
Sequence (P35462 whole entry): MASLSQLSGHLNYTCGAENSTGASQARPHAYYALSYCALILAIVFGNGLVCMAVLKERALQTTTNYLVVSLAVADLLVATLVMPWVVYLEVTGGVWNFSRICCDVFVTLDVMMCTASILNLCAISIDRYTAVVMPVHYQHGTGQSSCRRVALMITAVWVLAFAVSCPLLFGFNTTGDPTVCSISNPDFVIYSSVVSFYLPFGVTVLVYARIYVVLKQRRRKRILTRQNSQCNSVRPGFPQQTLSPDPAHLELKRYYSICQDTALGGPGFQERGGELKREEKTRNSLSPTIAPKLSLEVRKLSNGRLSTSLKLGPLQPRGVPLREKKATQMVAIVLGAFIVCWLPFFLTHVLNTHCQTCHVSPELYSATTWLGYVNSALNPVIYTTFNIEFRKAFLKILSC
Assay: [N-Methyl-3H]Spiroperidol binding to cloned human dopamine D3 receptors
Details: Table 2 part the 10th table; read-out: d3Ki
Measure name: Ki (nM)
Number only, in nM; omit the unit.

Please review the entries below; each comes with its answer.
Form field Ki, entry CCOC(=O)C1CCN(C(=O)CCCN2CCN(c3csc4cc(F)ccc34)CC2CCCc2ccccc2)CC1 (stereo not shown) [compound 827112] : 126

# molecule CC1CCCCN1C(=O)CCCN1CCN(c2csc3cc(C(F)(F)F)ccc23)CC1CCCc1ccccc1 (stereo not shown) [compound 827084] ; its Ki = 266

Recorded Ki (molecule O=C([C@@H]1C[C@H]1CN1CCCN(c2csc3cc(F)ccc23)CC1)N1CCCC1 [compound 826879] ): 1.59

// recorded Ki for O=C([C@@H]1C[C@H]1CN1CCCN(c2csc3cc(C(F)(F)F)ccc23)CC1)N1CCC(Cc2ccccc2)CC1 [compound 826688] : 217

Others:
Summary for this molecule, O=C([C@@H]1C[C@H]1CN1CCN(c2csc3cc(C(F)(F)F)ccc23)CC1)N1CCC(N2CCCCC2)CC1 [compound 826910] : Ki is 17.5

Looking up N#CC1(c2ccccc2)CCN(C(=O)[C@@H]2C[C@H]2CN2CCCN(c3csc4cc(C(F)(F)F)ccc34)CC2)CC1 [compound 826689] , I found its Ki recorded as 674

Entry CC1(C)CC2CC(C)(CN2C(=O)[C@@H]2C[C@H]2CN2CCN(c3csc4cc(C(F)(F)F)ccc34)CC2)C1 (stereo partly shown) [compound 826896] — recorded Ki = 89.5

---

Biological target: Cloned Human Dopamine D3 Receptors (Homo sapiens, UniProt P35462)
Construct: expressed in transfected cells; membrane homogenate
Test: [N-Methyl-3H]Spiroperidol binding to cloned human dopamine D3 receptors
Conditions: Table 2 part the 10th table; read-out: d3Ki
Procedure: [N-Methyl-^3H]Spiroperidol Binding to Cloned Human Dopamine D3 Receptors […] A 200 µl sample membrane homogenate is added to 200 µl of 1% SDS, vortexed and allowed to stand for 5 min. Aliquots (25, 50 and 100 µl) of this mixture are assayed in duplicate following the standard Bio-Rad DC protein assay protocol (kit catalog number 500-0112) and using reagent S. Absorbance readings are made at 750 nm (note: the most accurate protein OD readings are between 0.1-0.5 units). […]
I'd appreciate it if you marked entries satisfied when Ki is lower than 60 nM and not satisfied when it is not.

These solved cases illustrate the format of a correct answer.
Q: Determine if `O=C([C@@H]1C[C@H]1CN1CCN(c2csc3cc(C(F)(F)F)ccc23)CC1)N1CCC(O)(c2ccccc2)CC1` shows Ki strictly lower than 60 nM.
A: not satisfied

Q: In the record for `O=C([C@@H]1C[C@H]1CN1CCN(c2csc3cc(C(F)(F)F)ccc23)CC1)N1CCC[C@H]1CNc1ccccc1` , is Ki less than 60 nM?
A: not satisfied

Q: Field: below-cutoff. Rule: recorded Ki strictly less than 60 nM. Subject: `O=C(CCCN1CCCN(c2csc3cc(F)ccc23)CC1)N1CCC(N2CCCC2)CC1`
A: satisfied

Continuing:
Q: is_below(Ki, 60 nM) for CC(=O)N(C)C1CCN(C(=O)[C@@H]2C[C@H]2CN2CCN(c3csc4cc(C(F)(F)F)ccc34)CC2)C1 (stereo partly shown) ?
A: not satisfied

Q: Report whether reported Ki is lower than 60 nM (strictly) for CC1CCCN(C(=O)CCCN2CCN(c3csc4cc(F)ccc34)CC2Cc2ccccc2)C1 (stereo not shown)
A: satisfied

Q: Strictly below 60 nM: is that where Ki of CC1CCCN1C(=O)[C@@H]1C[C@H]1CN1CCCN(c2csc3cc(F)ccc23)CC1 (stereo partly shown) sits?
A: satisfied

Q: Determine if CCOC(=O)C1CCN(C(=O)CCCN2CCN(c3csc4cc(C(F)(F)F)ccc34)CC2CCCc2ccccc2)CC1 (stereo not shown) shows Ki strictly lower than 60 nM.
A: not satisfied

---

Molecular target: Cloned Human Dopamine D3 Receptors (Homo sapiens, UniProt P35462)
Construct: expressed in transfected cells; membrane homogenate
Assay: [N-Methyl-3H]Spiroperidol binding to cloned human dopamine D3 receptors
Conditions: Table 2 part the 10th table; read-out: d3Ki
Measure name: log10 of Ki (log10 of the value in nM)
Response schema: value (number) is log10 of Ki in units of nM.

Example compounds with recorded log10 of Ki:
Please fill in: log10 of Ki reported for CC1CCCCN1C(=O)[C@@H]1C[C@H]1CN1CCCN(c2csc3cc(F)ccc23)CC1 (stereo partly shown) = 0.12

Short answer for `O=C([C@@H]1CCCC[C@@H]1CN1CCN(c2csc3cc(C(F)(F)F)ccc23)CC1)N1CCCCC1` : log10 of Ki was 2.34

Entry `O=C([C@@H]1C[C@H]1CN1CCCN(c2csc3cc(C(F)(F)F)ccc23)CC1)N1CCOCC1` , log10 of Ki reported as 1.54

The value of log10 of Ki measured for the compound `CCOC(=O)C1CCN(C(=O)CCCN2CCCN(c3csc4cc(F)ccc34)CC2)CC1` turned out to be 0.41

Sure, the documented log10 of Ki for `CC(=O)N[C@@H]1CCN(C(=O)[C@@H]2C[C@H]2CN2CCN(c3csc4cc(C(F)(F)F)ccc34)CC2)C1` is 2.26

Others:
The recorded log10 of Ki for entry `O=C([C@@H]1C[C@H]1CN1CCN(c2csc3cc(C(F)(F)F)ccc23)CC1)N1CCCC1` equals 1.15

For reference, reported log10 of Ki for CC1(C)CCCN(C(=O)CCCN2CCN(c3csc4cc(C(F)(F)F)ccc34)CC2Cc2ccccc2)C1 (stereo not shown) stands at 2.29

---

Target: Cloned Human Dopamine D3 Receptors (Homo sapiens, UniProt P35462)
Construct: expressed in transfected cells; membrane homogenate
Test: [N-Methyl-3H]Spiroperidol binding to cloned human dopamine D3 receptors
Conditions: read-out: d3Ki
Documented pKi across a set of compounds
Notebook: values listed as pKi are -log10 of the concentration (mol/L).

Measured pKi, `CC[C@H]1CC[C@H](NC(=O)[C@@H]2C[C@H]2CN2CCN(c3ncc(C(F)(F)F)cc3Cl)CC2)CC1` : 8.51

pKi in this record for `CC[C@H]1CC[C@H](NC(=O)[C@@H]2C[C@H]2CN2CCN(c3ccc(C(C)=O)cc3)CC2)CC1` : 7.37

Consider `COC(=O)[C@H]1CC[C@H](NC(=O)[C@@H]2C[C@H]2CN2CCN(c3csc4cc(F)ccc34)CC2)CC1` . Its measured pKi is 8.20

pKi measured on `CCN(C(=O)[C@@H]1C[C@H]1CN1CCCN(c2csc3cc(F)ccc23)CC1)C1CCCCC1` = 8.17

Lab note: measured pKi of `CC[C@H]1CC[C@H](NC(=O)[C@@H]2C[C@H]2CN2CCCN(c3csc4cc(C(F)(F)F)ccc34)CC2)CC1` was 7.24

// pKi lookup, compound = O=C(NCC1CC1)[C@@H]1CCC[C@H]1N1CCN(c2csc3cc(F)ccc23)CC1 [825829G] , result: 7.40

The compound listed as `O=C(NNC1CCCCC1)[C@@H]1C[C@H]1CN1CCN(c2csc3cc(C(F)(F)F)ccc23)CC1` has a reported pKi of 7.08

Per the record, O=C(NCc1nc2ccccc2[nH]1)[C@@H]1CCC[C@H]1N1CCN(c2csc3cc(F)ccc23)CC1 [825826G] has pKi of 7.49

Measured pKi, `CCOc1ccccc1N1CCN(C[C@@H]2C[C@H]2C(=O)N[C@H]2CC[C@H](CC)CC2)CC1` : 9.64

Entry under test: `Cc1ccc(N2CCN(C[C@@H]3C[C@H]3C(=O)N[C@H]3CC[C@H](C)CC3)CC2)c(C)c1` . Its pKi was 7.39

response.value for `O=C(NCc1ccccc1)[C@@H]1CCC[C@H]1N1CCN(c2csc3cc(F)ccc23)CC1` (field: pKi) = 7.19

// sample CC1CCC(NC(=O)C2CC2CN2CCN(c3ncccn3)CC2)CC1 (stereo not drawn) , its pKi was 7.56

# compound `COc1ccc(N2CCN(C[C@@H]3C[C@H]3C(=O)N[C@H]3CC[C@H](C)CC3)CC2)cc1` ; its pKi = 7.61

Briefly, pKi measured for `Cc1cccc(C)c1N1CCN(C[C@@H]2C[C@H]2C(=O)N[C@H]2CC[C@H](C)CC2)CC1` : 6.92

Looking up `CN(C)c1ccc(CNC(=O)[C@@H]2CCC[C@H]2N2CCN(c3csc4cc(F)ccc34)CC2)cc1` , I found its pKi recorded as 7.66

Memo: `CCN(C(=O)[C@@H]1C[C@H]1CN1CCN(c2csc3cc(C(F)(F)F)ccc23)CC1)C1CCCCC1` , reported pKi: 7.46

According to the records, this compound `O=C(NCc1cccs1)[C@@H]1CCC[C@H]1N1CCN(c2csc3cc(F)ccc23)CC1` displays pKi of 7.22

Noted for `C[C@H]1CC[C@H](NC(=O)[C@@H]2C[C@H]2CN2CCN(c3ccc([N+](=O)[O-])cc3)CC2)CC1` : its pKi reads 6.70

response.value for `O=C([C@@H]1C[C@H]1CN1CCCN(c2csc3cc(F)ccc23)CC1)N(CCO)C1CCCCC1` (field: pKi) = 8.13

Measured pKi of `O=C(NC1CC1)[C@@H]1CCCC[C@H]1CN1CCN(c2csc3cc(C(F)(F)F)ccc23)CC1` : 6.30

GET /value?item= `CC[C@H]1CC[C@H](NC(=O)[C@@H]2C[C@H]2CN2CCN(c3cccc(Cl)c3)CC2)CC1` &field=pKi returns 8.92
